// data source = patent US11479556B1

# Lookup of reported DC50 keyed by entry
Biological target: BTK (Homo sapiens, UniProt Q06187)
Construct: endogenous in cells; host or cells: TMD8 cells
Sequence (Q06187 whole entry): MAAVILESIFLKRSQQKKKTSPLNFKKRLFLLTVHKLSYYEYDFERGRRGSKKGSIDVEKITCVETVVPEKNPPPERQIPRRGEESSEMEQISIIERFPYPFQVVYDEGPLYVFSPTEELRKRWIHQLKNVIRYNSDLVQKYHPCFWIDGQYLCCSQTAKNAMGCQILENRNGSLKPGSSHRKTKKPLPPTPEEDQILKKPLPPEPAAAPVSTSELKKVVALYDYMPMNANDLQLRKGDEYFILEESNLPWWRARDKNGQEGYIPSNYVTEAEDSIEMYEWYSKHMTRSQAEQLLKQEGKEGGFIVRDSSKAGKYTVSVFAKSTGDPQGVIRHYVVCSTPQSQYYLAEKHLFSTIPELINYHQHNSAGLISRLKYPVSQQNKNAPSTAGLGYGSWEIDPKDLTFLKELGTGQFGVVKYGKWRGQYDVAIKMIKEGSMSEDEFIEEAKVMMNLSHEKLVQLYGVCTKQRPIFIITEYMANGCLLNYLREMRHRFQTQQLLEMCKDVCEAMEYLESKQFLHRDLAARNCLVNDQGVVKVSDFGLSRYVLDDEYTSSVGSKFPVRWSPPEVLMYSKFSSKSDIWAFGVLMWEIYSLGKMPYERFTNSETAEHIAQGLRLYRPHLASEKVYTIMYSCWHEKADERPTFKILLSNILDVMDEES
Test: Cellular BTK HTRF assay (BTK degradation) in TMD8 cells
Assay type: cell-based
Conditions: four hours incubation, Total-BTK HTRF relative to DMSO-treated cells

Recorded DC50, per entry:
INSERT INTO results (compound, value_kind, meas_value) VALUES
  ('Cn1c(-c2ccc(N3CCC(CN4CCC(c5ccc(Nc6nc(N7CCC[C@H](N8CCCC8=O)C7)cnc6C(N)=O)cc5)CC4)CC3)cc2)nn(C2CCC(=O)NC2=O)c1=O (stereo partly drawn) [Compound 143]', 'DC50', '< 5 nM'),
  ('CN1CCN([C@@H]2CCCN(c3cnc(C(N)=O)c(Nc4ccc(N5CCN(C[C@H]6CCCN(c7ccc8c(c7)C(=O)N(C7CCC(=O)NC7=O)C8=O)C6)CC5)cc4)n3)C2)C1=O (stereo partly drawn) [Compound 48]', 'DC50', '< 5 nM');

Now let's try a different one.
Problem: Return the recorded DC50 value; entry: CN1CCN([C@@H]2CCCN(c3cnc(C(N)=O)c(Nc4ccc(N5CC6(CN(CCCc7cccc8c7CN(C7CCC(=O)NC7=O)C8=O)C6)C5)cc4)n3)C2)C1=O (stereo partly drawn) [Compound 33]
Solution: < 5 nM

----------
Target: BTK (Homo sapiens)
Construct: endogenous in cells; host or cells: TMD8 cells
Assay: Cellular BTK HTRF assay (BTK degradation) in TMD8 cells
Assay type: cell-based
Details: four hours incubation, Total-BTK HTRF relative to DMSO-treated cells
VALUE KIND: DC50

Observe how each entry below is paired with its result.
INSERT INTO assay_data (molecule, system, value_kind, meas_value) VALUES
  ('CN1CCN([C@H]2CCCN(c3cnc(C(N)=O)c(Nc4ccc(N5CCCC6(CN(Cc7ccc8c(c7)C(=O)N(C7CCC(=O)NC7=O)C8=O)C6)C5)cc4)n3)C2)C1=O (some centres unmarked)', 'BTK (Homo sapiens)', 'DC50', '< 5 nM'),
  ('NC(=O)c1ncc(N2CCCCC2)nc1Nc1ccc(C2CCN(CC3CCN(c4ccc(NC5CCC(=O)NC5=O)cn4)CC3)CC2)cc1 (centres unmarked)', 'BTK (Homo sapiens)', 'DC50', '> 15 nM'),
  ('CN1CCN([C@H]2CCCN(c3cnc(C(N)=O)c(Nc4ccc(N5CCC6(CC5)CCN(c5ccc7c(c5)C(=O)N(C5CCC(=O)NC5=O)C7=O)CC6)cn4)n3)C2)C1=O (some centres unmarked)', 'BTK (Homo sapiens)', 'DC50', '> 15 nM'),
  ('CN1CCN([C@@H]2CCCN(c3cnc(C(N)=O)c(Nc4ccc(C5CCN(CC6CCN(c7ccc8c(c7)n(C)c(=O)n8C7CCC(=O)NC7=O)CC6)CC5)cc4)n3)C2)C1=O (some centres unmarked)', 'BTK (Homo sapiens)', 'DC50', '< 5 nM'),
  ('CN1CCN([C@@H]2CCCN(c3cnc(C(N)=O)c(Nc4ccc(N5CCN(CC6CN(c7ccc8c(c7)C(=O)N(C7CCC(=O)NC7=O)C8=O)C6)CC5)cc4)n3)C2)C1=O (some centres unmarked) [Compound 60]', 'BTK (Homo sapiens)', 'DC50', '< 5 nM'),
  ('CN1CCN([C@@H]2CCCN(c3cnc(C(N)=O)c(Nc4ccc(C5(C)CCN(CCOCCCc6cccc7c6C(=O)N(C6CCC(=O)NC6=O)C7=O)CC5)cc4)n3)C2)C1=O (some centres unmarked)', 'BTK (Homo sapiens)', 'DC50', '5 to 15 nM');

Problem: Complete the entry with DC50 for NC(=O)c1ncc(N2CCCCC2)nc1Nc1ccc(C2CCN(CC3CCN(c4ccc5ccn(C6CCC(=O)NC6=O)c(=O)c5c4)CC3)CC2)cc1 (centres unmarked)
Solution: < 5 nM

Problem: Tell me measured DC50 for NC(=O)c1ncc(N2CCC[C@H](N3CCCC3=O)C2)nc1Nc1ccc(C2CCN(CC3CCN(c4ccc5c(=O)n(C6CCC(=O)NC6=O)ccc5c4)CC3)CC2)cc1 (some centres unmarked) please.
Solution: < 5 nM

Problem: State its DC50: CN1CCN([C@@H]2CCCN(c3cnc(C(N)=O)c(Nc4ccc(C5CN(CC6CCN(c7cnn(C8CCC(=O)NC8=O)c(=O)c7)CC6)C5)cc4)n3)C2)C1=O (some centres unmarked)
Solution: < 5 nM

Problem: Specify DC50 for CN1CCN([C@@H]2CCCN(c3cnc(C(N)=O)c(Nc4ccc(C5CN(CCCCc6cccc7c6CN(C6CCC(=O)NC6=O)C7=O)C5)cc4)n3)C2)C1=O (some centres unmarked) and stop.
Solution: 5 to 15 nM

Problem: Provide DC50 value for the following molecule: CN1CCN([C@@H]2CCCN(c3cnc(C(N)=O)c(Nc4ccc(C5CCN(C(=O)CNc6cccc7c6C(=O)N(C6CCC(=O)NC6=O)C7=O)CC5)cc4)n3)C2)C1=O (some centres unmarked)
Solution: 5 to 15 nM
